target: SARS-CoV-2 spike protein on live virus, B1.351 (beta variant) (SARS-CoV-2, B1.351); assay: cell-based or functional assay
reported_endpoint: Live Neut, B1.351 IC50 (pM)
Answer with a number only, understood to be in pM.

What Live Neut, B1.351 IC50 (pM) value was documented for this binder, antibody 1589 (antibody, V domains shown) VH: EVQLVESGGGLIQVGGSLRLSCAASGLTVTSNYMNWVRQGPGKGLEWVSLIYSGGTTYYADSVKGRFTISRDDSKNTLYLQMNSLRAEDTAVYYCARPIVGARSGMDVWGQGTAVTVSS VL: DIQMTQSPSSLSASVGDRVTITCQASQDINKYLNWYQQKPGKAPKLLIYDASNLETGVPSRFSGSGSGTDFTFTISSLQPEDLATYYCHQFDNLPGTFGGGTKVEIK ? 167
